protocol summary: coupled detection enzyme interference, dose response, artefact control for MgcRacGAP inhibitor project, biochemical, coupled enzyme counter-screen (AID 624351);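 also: signal is the ADP detection kit reading of free GDP without any GAP enzyme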
condition summary: ADP Hunter coupled enzyme counter-screen, fluorescence, no MgcRacGAP; series mostly up to 80 µM
About 1,400 (58%) of roughly 2,400 compounds were called active.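 The calls were made as follows: active = inhibition of 30% or more at any tested dose; inconclusive = primary hits over the limit that were never retested; inactive = the rest.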 The set was probably picked from earlier hits. The list shows a part of the results.
Write down the outcome that applies. Available outcomes: active, inactive

Please share the test call associated with "CCOc1c(C=C(C#N)C#N)c2ccccc2n1CC" .
inactive

Input CC1CN(CCOCCOc2ccccc2-c2ccccc2)CC(C)O1 (configuration not stated)
inactive

Now consider "CCOC(=O)N/N=C/c1ccc(N(CC)CC)cc1O" and answer again.
active

Next: "CC(C)CN(Cc1c(O)ccc2ccccc12)CC(C)C"
active

Now consider C=C1c2cccc(O)c2C(=O)C2C(=O)[C@]3(O)C(=O)C(C(N)=O)C(=O)[C@@H](N(C)C)[C@@H]3[C@@H](O)[C@H]12 (some centres not stated) .
inactive

Next compound: "CCCCn1c(C)cc2cc(O)ccc21"
active

Lookup "CCN(CC)c1ccc(/C=N/NC(=O)OC)c(O)c1"
active

###

protocol summary: coupled detection enzyme interference, dose response, artefact control for MgcRacGAP inhibitor project, biochemical, coupled enzyme counter-screen (AID 624351);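 also: signal is the ADP detection kit reading of free GDP without any GAP enzyme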
condition summary: ADP Hunter coupled enzyme counter-screen, fluorescence, no MgcRacGAP; series mostly up to 80 µM
Hit rate of the full screen: of about 2,400 compounds, about 1,400 (58%) were called active.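 Rule for the calls: active = inhibition of 30% or more at any tested dose; inconclusive = primary hits over the limit that were never retested; inactive = the rest.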 The set was probably picked from earlier hits. The list shows a part of the results.
Pick one: TRUE = active, FALSE = inactive

Per the records of this test, what outcome belongs to "Oc1ccc(-c2csc(Nc3cccnc3)n2)cc1" ?
TRUE

Same question, "O=C(O)CCCNC(=O)/C=C/c1ccco1" this time
FALSE

Same question, "CC(=O)c1c(Nc2ccc3c(c2)OCCO3)oc(C)cc1=O" this time
TRUE

Repeat for the following molecule: "c1ccc(CC2CCN(Cc3ccccn3)CC2)cc1"
FALSE

Param item: "O=C(CSc1nnnn1C1CC1)N1CCN(c2ccc(O)cc2)CC1"
TRUE

Do the same for "O=C1NC(=S)S/C1=C1\Sc2ccccc2N1CCCS(=O)(=O)O" please
FALSE

Try "O=C(CSc1nnc(C2CC2)n1C1CC1)N1CCN(c2ccc(O)cc2)CC1" next.
TRUE

Likewise for "CCN1CCN(CC(=O)N/N=C/c2cc(Br)cs2)CC1" ?
FALSE

Next: COCC(C)NCc1ccccc1C (stereo not given)
FALSE

Again, but for OC1CNc2c(ccc3ccccc23)C1 (stereo not given)
TRUE

Lookup "COCCNCC(=O)Nc1nc(C)cs1"
FALSE

Also "O=C1C=CC2(C=C1)O[C@H](Cc1ccccc1)[C@@H](Cc1ccccc1)O2" , if possible.
FALSE

Follow-up item: "COc1cc(/C=N/NC(=O)c2ccc(N3CCCC3=O)cc2)ccc1O"
TRUE

Repeat for the following molecule: "Cc1cc(C)n(CCC(=O)N/N=C/c2ccc(O)cc2)n1"
TRUE

Follow-up item: "CCOC(=O)c1c(C)[nH]sc1=S"
TRUE

Then "N#CC1(Nc2ccc3c4c(cccc24)CC3)CCCCC1" ?
TRUE

Again, but for "COc1cc(/C=N/NC(=O)c2cccc(N3CCCC3=O)c2)ccc1O"
TRUE

Would you mind doing "COc1ccc(Nc2ccc3ccccc3c2)cc1" as well?
TRUE

Also, "CCOC(=O)c1sc(=S)[nH]c1C" please.
TRUE

And the next one, "Brc1csc(C=Nc2ccc3c(c2)OCCOCCOCCOCCO3)c1" ?
TRUE

###

protocol summary: coupled detection enzyme interference, dose response, artefact control for MgcRacGAP inhibitor project, biochemical, coupled enzyme counter-screen (AID 624351);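 also: signal is the ADP detection kit reading of free GDP without any GAP enzyme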
condition summary: ADP Hunter coupled enzyme counter-screen, fluorescence, no MgcRacGAP; series mostly up to 80 µM
About 1,400 (58%) of roughly 2,400 compounds were called active. So high a share suggests a set chosen from earlier hits. This is one part of the list.
measured quantity: IC50

compound=Cc1cc(Cl)c(OCCOCCN2CCN(C)CC2)c(Br)c1 measured_value=inactive
compound="COc1cc(/C=C/C(=O)OC(C)C(=O)Nc2c(C)n(C)n(-c3ccccc3)c2=O)ccc1O (centres undefined)" measured_value="45.4 µM (active)"
compound=Cc1ccc(-n2sc3cc(F)ccc3c2=O)c(C)c1 measured_value=inactive
compound=O=C(CN1CCCCCC1)NN(Cc1ccccc1)c1ccccc1 measured_value=inactive

###

protocol summary: coupled detection enzyme interference, dose response, artefact control for MgcRacGAP inhibitor project, biochemical, coupled enzyme counter-screen (AID 624351);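 also: signal is the ADP detection kit reading of free GDP without any GAP enzyme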
condition summary: ADP Hunter coupled enzyme counter-screen, fluorescence, no MgcRacGAP; series mostly up to 80 µM
Hit rate of the full screen: of about 2,400 compounds, about 1,400 (58%) were called active.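 Rule for the calls: active = inhibition of 30% or more at any tested dose; inconclusive = primary hits over the limit that were never retested; inactive = the rest.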 The set was probably picked from earlier hits. The list shows a part of the results.
Reply using exactly one outcome from true (1) = active, false (0) = inactive

Hey, what did the test say about "C[C@@H]1O[C@@H](OC[C@H]2O[C@@H](Oc3cc(O)c4c(=O)cc(-c5ccc(O)c(O)c5)oc4c3)[C@H](O)[C@@H](O)[C@@H]2O)[C@H](O)[C@H](O)[C@H]1O" ?
true (1)

Same question for "COc1cc(/C=N/Nc2nc(C)cc(C)n2)ccc1O" please.
true (1)

Entry O=C(O)c1cc(O)c2c(c1)[C@@H]([C@H]1c3cc(C(=O)O)cc(O)c3C(=O)c3c(O[C@@H]4O[C@H](CO)[C@@H](O)[C@H](O)[C@H]4O)cccc31)c1cccc(OC3O[C@H](CO)[C@@H](O)[C@H](O)[C@H]3O)c1C2=O (some centres undefined) please
false (0)

Same thing, different molecule: "CN(C)c1ccc(C=c2c3ccccc3n3c2cc(-c2ccc(Cl)cc2)[n+]3C)cc1"
false (0)

Moving on to "COc1ccc(O/C(=N\S(=O)(=O)c2ccccc2)c2ccccc2)cc1"
true (1)

One more molecule: "O=C1CSC(=S)N1Nc1ccccc1"
true (1)

Further, for "CCOC(=O)c1oc2cc(O)cc(C)c2c1C" ?
true (1)

// query: "COc1cc(/C=N/NC(=O)c2cc(-c3c(C)nn(-c4ccccc4)c3C)n[nH]2)ccc1O"
true (1)

// repeat for "Cc1cc(O)ccc1N/C=C1\CCCC1=O" and report
true (1)

Record: "O=C1CCCC/C1=C\Nc1ccc(O)cc1"
true (1)

Do the same for "O=c1oc(-c2ccc(O)c(O)c2)cc2cc(O)cc(O)c12" please
true (1)

Another: O=c1cc(-c2ccc(O)c(O)c2)oc2cc(O)c(C3OC(CO)C(O)C(O)C3O)c(O)c12 (centres undefined)
true (1)

Same for "Cc1ccc(C(C)C)c(OCCCCN2CCNCC2)c1"
false (0)

Queued: "Cc1sc2ncnc(Nc3ccc(O)cc3)c2c1C"
true (1)

###

protocol summary: coupled detection enzyme interference, dose response, artefact control for MgcRacGAP inhibitor project, biochemical, coupled enzyme counter-screen (AID 624351);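 also: signal is the ADP detection kit reading of free GDP without any GAP enzyme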
condition summary: ADP Hunter coupled enzyme counter-screen, fluorescence, no MgcRacGAP; series mostly up to 80 µM
About 1,400 (58%) of roughly 2,400 compounds were called active.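 The calls were made as follows: active = inhibition of 30% or more at any tested dose; inconclusive = primary hits over the limit that were never retested; inactive = the rest.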 The set was probably picked from earlier hits. This is one part of the list.
A correct response names exactly one class from y = active, n = inactive

What did this assay record as the result for "COc1ccc(Oc2cn[nH]c2-c2ccc(O)cc2O)cc1" ?
y

Request: "CCOC(=O)COc1ccc2c(c1)C(=O)CC1(CCCCC1)O2"
n

"Oc1ccc(-c2cn3c(n2)SCC3)cc1" , same question.
y

Record: "COc1ccccc1N1CCN(CCCOc2ccc(F)cc2)CC1"
n

Same question for CC1CCCC(N2CCN(C(=O)c3ccc([N+](=O)[O-])cc3)CC2)C1 (centres undefined) please.
n

Also "O=[N+]([O-])c1ccc(N/N=C/c2ccc[nH]2)cc1" , if possible.
y

Same lookup for "COc1cc(/C=N/NC(=S)Nc2cccc(S(=O)(=O)N(C)C)c2)ccc1O" , please.
y

Follow-up item: "Cc1ccc2c(C)nc(/N=C(\N)NC(=O)N3c4ccccc4Sc4ccccc43)nc2c1"
n

Same again, this time with "COc1cc(/C(C)=N/N2CCN(c3ccccc3OC)CC2)ccc1O"
n

What do we get for "O=C(N/N=C/c1ccc(O)c(O)c1)c1cccc(S(=O)(=O)N2CCCCC2)c1" ?
y

Now the compound "CCOc1ccccc1N1CCN(C/C=C/c2ccc(N(C)C)cc2)CC1"
n

Quick one: "CCN(CC)CCOCCOc1ccc(Cl)c2ccccc12"
n

Next record, please: "O=C(COc1ccc(Nc2ccccc2)cc1)OCC(=O)N1CCCCC1"
y

One more compound: CCN(CC(=O)Nc1cc(Cl)ccc1OC)CC(=O)NC1CCS(=O)(=O)C1 (centres undefined)
n

Follow-up entry: "COc1cccc(Oc2cn[nH]c2-c2ccc(O)cc2O)c1"
y

"COc1cc(/C=C/C(=O)OCC(=O)NCC2CCCCC2)ccc1O" , same question.
y

Try this compound next: "CCOc1cc(C=NNC(=O)c2cccc(S(=O)(=O)N3CCCC3)c2)ccc1O"
y

Same question, "CN(C)c1ccc2c(c1)C(=NO)c1ccccc1-2" this time
y

Same thing, different compound: "O=c1oc2cc(O)ccc2c2oc3cc(O)ccc3c12"
y

Also need "O=C(COC(=O)c1ccccc1)Nc1ncc([N+](=O)[O-])s1" , thanks.
n

And then "O=C(NCc1ccco1)c1sc(=S)n2c1[nH]c(=O)c1ccccc12" , what is it?
n

Next up: "COc1ccc(/C=N/N2CCN(C)CC2)cc1O"
y

"O=C(CNCc1ccco1)Nc1cccc(S(=O)(=O)N2CCCCC2)c1" ?
n

Check "COc1cc(/C=C/C(=O)OCC(=O)NCCC2=CCCCC2)ccc1O" too.
y

Now consider "COc1cc2cc(-c3ccc(O)cc3O)nc(C)c2cc1OC" .
y

Queued: "N#C/C(=C/c1ccc(N2CCCCCC2)o1)c1ccc(Cl)cc1"
n

// same read-out, input: "COc1ccc(/C=N/NC(=O)c2cccc(S(=O)(=O)N3CCCC3)c2)cc1O"
y

Now give it for "CC[n+]1ccc(/C=C/c2ccc(N(C)C)cc2)c2ccccc21" too.
y

Same again, this time with "CCN(CC)c1ccc(/C=C2/SC(=O)N(C(C)C)C2=O)o1"
y

Follow-up item: "Oc1ccc(-c2csc(-c3cccnc3)n2)cc1O"
y

Moving on to the next compound: "COc1ccc(CN2CCCN(C)CC2)c(OC)c1C"
n

Also need "COc1cc(/C=N/NC(=O)CNC(=O)c2cccs2)ccc1O" , thanks.
y

How about "COc1cc(/C=N/NC(=O)CNC(=O)c2ccco2)ccc1O" ?
y

Item: "CSc1nc(=S)c2[nH]c(=S)[nH]c2[nH]1"
n
